tested on: IL-2 production; test: Inhibition of IL-2 production in PHA-activated Jurkat cells (ELISA); assay type: cell-based; details: Homo sapiens, Jurkat, 20 h, PHA 2.5 μg/mL, IL-2 ELISA
Counter-ions that a name gives are not always drawn.
Measured parameter: IC50 (nM)

In [3]: df
Out[3]:
                                   compound  measured_value
0  O=C(Nc1cnc(-c2cc(C(F)(F)F)ccc2Cl)cn1)c1c(F)cccc1F [Compound 4, hydrochloride]               6

====

system: IL-2 production; test: Inhibition of IL-2 production in PHA-activated Jurkat cells (ELISA); assay type: cell-based; settings: Homo sapiens, PHA 2.5 μg/mL, 20 hours, IL-2 ELISA
Parameter: IC50. Scope: all listed entries.
Measured parameter: IC50 (nM)

>>> print(df.to_string())
                           structure_string      test_target  measured_value
0  O=C(Nc1cnc(-c2cc(C(F)(F)F)ccc2Cl)cn1)c1c(F)cncc1F  IL-2 production             4.1
1  COc1ccc(OC)c(-c2cnc(NC(=O)c3snnc3C)cn2)c1  IL-2 production             302
2  Cc1ccc(-c2ncco2)cc1-c1cnc(NC(=O)C2CCCCC2)cn1  IL-2 production            38.5

====

test system: IL-2 production; experiment: Inhibition of IL-2 production in PHA-activated Jurkat cells (ELISA); format: cell-based; settings: Homo sapiens, PHA 2.5 μg/mL, 20 hours, IL-2 ELISA
Measured parameter: log10 IC50 (log10 of the value in nM)

In [3]: df
Out[3]:
                           structure_string  measured_value
0  O=C(Nc1ncc(-c2cc(C(F)(F)F)ccc2Cl)cn1)c1c(F)cccc1F            2.07
1  Cc1nnsc1C(=O)Nc1cnc(-c2cc(C(F)(F)F)ccc2Cl)cn1            1.79
2  COc1ccc(OC)c(-c2cnc(NC(=O)c3ccncc3F)cn2)c1            2.32
3  Cc1ccc(-c2ncco2)cc1-c1cnc(NC(=O)c2ccncc2F)cn1            1.70
4  COc1ccc(OC)c(-c2cnc(NC(=O)C3CCCCC3)cn2)c1            2.55
5  O=C(Nc1cnc(-c2cc(C(F)(F)F)ccc2Cl)nc1)c1c(F)cccc1F            2.82
6  COc1ccc(OC)c(-c2cnc(NC(=O)c3ccncc3C)cn2)c1            2.16
7  O=C(Nc1cnc(-c2cc(C(F)(F)F)ccc2Cl)cn1)c1c(F)cccc1F            0.30
8  Cc1ccc(-c2ncco2)cc1-c1cnc(NC(=O)c2snnc2C)cn1            1.74
